Sourced from patent US6323185

target: HIV-1 integrase wild-type (IN1-288) (HIV-1, UniProt P12497 P12497:1148-1435); experiment: inhibition; first activity column (headed strand transfer); other column 0.050; settings: G4
Provide the reported IC50 of each item.
One number for each entry, in nM.

Check out these entries, answers already filled in.
>  <binder>
GTGGTGGGTGGGTGGGT (ssDNA, PS at first and last linkages, 5-bromo-dU at positions 5, 9, 13 [n positions 5,9,13 = modified dU]) [T30571]

>  <observed_measurement>
55

$$$$
>  <binder>
GTGGTGGGTGGGTGGGT (ssDNA, PS at first and last linkages, 5-iodo-dU at position 13 [n positions 13 = modified dU]) [T30578]

>  <observed_measurement>
60

$$$$

# input Bench note: what IC50 did GTGGTGGGTGGGTGGGT (ssDNA, PS at first and last linkages, 5-iodo-dU at position 5 [n positions 5 = modified dU]) [T30576] show?
# output 65
